Molecular target: T1, apical domain of cynomolgus CD71 (cynomolgus, UniProt A0A2K5X958 189-383)
T1 construct: domain: apical domain; also called Cyno apical domain
T1 sequence (A0A2K5X958 entry or part of it): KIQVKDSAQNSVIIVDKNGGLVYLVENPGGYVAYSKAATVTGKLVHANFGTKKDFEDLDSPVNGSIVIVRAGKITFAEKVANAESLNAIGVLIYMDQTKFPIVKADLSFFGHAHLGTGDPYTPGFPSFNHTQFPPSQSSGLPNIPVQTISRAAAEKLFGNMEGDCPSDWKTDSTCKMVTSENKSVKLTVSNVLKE
Assay: primary ELISA, signal ratio to HSA
measure: Cyno apical domain:HSA
// keep it numeric: no unit symbol after the value

Consider the binder CD71-binding FN3 domain of SEQ ID NO: 211 (designed binder) MSLPAPKNLVVSRVTEDSARLSWTAPDAAFDSFEIVYAEPVRFGEAIVLTVPGSERSYDLTGLKPGTEYWVQIGGVKGGEWSSLLSAIFTT and give its measured Cyno apical domain:HSA.
177

Consider the binder CD71-binding FN3 domain of SEQ ID NO: 143 (designed binder) MSLPAPKNLVVSRVTEDSARLSWTAPDAAFDSFAIQYVEVIGSGEAIELIVPGSERSYDLTGLKPGTEYHVYIDGVKGGKDSKPLYAGFTT and give its measured Cyno apical domain:HSA.
142

Consider the binder CD71-binding FN3 domain of SEQ ID NO: 182 (designed binder) MSLPAPENLVVSRVTEDSARLSWTAPDAAFDSFEIGYWENAYKGEAIVLTVPGSERSYDLTGLKPGTEYVVFIGGVKGGVWSVPLSVIFTT and give its measured Cyno apical domain:HSA.
131

Consider the binder CD71-binding FN3 domain of SEQ ID NO: 186 (designed binder) MSLPAPKNLVVSRVTEDSARLSWTAPDAAFDSFEIGYFENPYLGEAIVLTVPGSERSYDLTGLKPGTEYWVQIGGVKGGNWSAPLSAIFTT and give its measured Cyno apical domain:HSA.
153

Consider the binder CD71-binding FN3 domain of SEQ ID NO: 119 (designed binder) MSLPAPKNLVVSRVTEDSARLSWTAPDAAFDSFFIGYLEPQPPGEAIELYVPGSERSYDLTGLKPGTEYNVTIQGVKGGFPSDPLVAFFTT and give its measured Cyno apical domain:HSA.
394

Consider the binder CD71-binding FN3 domain of SEQ ID NO: 139 (designed binder) MSLPAPKNLVVSRVTEDSARLSWTAPDAAFDSFEIGYFENLYLGEAIVLTVPGSERSYDLTGLKPGTEYWVQIGGVKGGAYSTPLSAIFTT and give its measured Cyno apical domain:HSA.
496

Consider the binder CD71-binding FN3 domain of SEQ ID NO: 124 (designed binder) MSLPAPKNLVVSRVIEDSARLSWTAPDAAFDSFEIGYFENLYLGEAIVLTVPGSERSYDLTGLKPGTEYWVQIGGVKGGNWSAPLSAIFTT and give its measured Cyno apical domain:HSA.
42

Consider the binder CD71-binding FN3 domain of SEQ ID NO: 160 (designed binder) MSLPAPKNLVVSRVTEDSARLSWTAPDAAFDSFEIGYFENLYLGEAIVLTVPGSERSYDLTGLKPGTEYWVQIGGVKGGNWSVPLSAIFTT and give its measured Cyno apical domain:HSA.
100

Consider the binder CD71-binding FN3 domain of SEQ ID NO: 208 (designed binder) MSLPAPKNLVVSRVTEDSARLSWTAPDAAFDSFFIGYFENLYLGEAIVLTVPGSERSYDLTGLKPGTEYWVQIGGVKGGNWSAPLSAIFTT and give its measured Cyno apical domain:HSA.
19
